# system under test: T1, human CD28 (human, UniProt P10747 19-220, On cells CD28 is a disulfide linked homodimer and a glycoprotein; one copy of the chain is given.)
# T1 construct: also called T-cell specific surface glycoprotein CD28
# T1 sequence (P10747 19-220 limits assumed): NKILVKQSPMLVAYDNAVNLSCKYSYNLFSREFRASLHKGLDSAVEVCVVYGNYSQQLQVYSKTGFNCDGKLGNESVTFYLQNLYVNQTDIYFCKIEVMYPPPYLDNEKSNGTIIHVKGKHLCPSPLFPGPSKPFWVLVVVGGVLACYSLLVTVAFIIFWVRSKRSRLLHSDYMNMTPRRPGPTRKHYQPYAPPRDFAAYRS
# test summary: flow cytometry, Ba/F3-human CD28 cells pre-incubated with 70 ug antibody, then 1 ug biotinylated recombinant CD86 (competitor) + labelled streptavidin
measured endpoint: % Reduction (of CD86 binding) (%)
Give bare numbers, in %.

Worked cases, % Reduction (of CD86 binding) given:
| binder | units label | value observed |
| --- | --- | --- |
| exemplary anti-CD28 antibody AB2 (antibody, V domains shown, Mouse hybridoma monoclonal antibody; also called antibody 2; clone 2) VH: QVQLQQPGSELMRPGASVKLSCKASGYTFTSYWMHWVKQRHGQGLEWIGNIYPGSGRTIYDEKFKSKATLTVDTSSSTAYMHLSSLTSEDSAVFYCTRSHYGSSFDAMDYWGQGTSVTVSS VL: DIQVNQSPSSLSASLGDTITITCHASQNIYVWLNWYQQKPGNIPKLLIYKASNLHTGVPSRFSGSGSGTGFTLTISSLQPEDIATYYCQQGQSYPWTFGGGTKLEIK | % | 91.4 |
| exemplary anti-CD28 antibody AB6 (antibody, V domains shown, Mouse hybridoma monoclonal antibody; Conjugated to PE in the staining assays; also called antibody 6; clone 6) VH: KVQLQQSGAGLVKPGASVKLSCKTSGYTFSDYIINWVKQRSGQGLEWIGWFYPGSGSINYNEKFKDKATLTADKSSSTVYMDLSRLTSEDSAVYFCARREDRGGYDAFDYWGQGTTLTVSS VL: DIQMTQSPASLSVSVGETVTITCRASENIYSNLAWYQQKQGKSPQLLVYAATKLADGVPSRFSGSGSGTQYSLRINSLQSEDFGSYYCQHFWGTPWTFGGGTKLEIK | % | 91.1 |
| exemplary anti-CD28 antibody AB1 (antibody, V domains shown, Mouse hybridoma monoclonal antibody; also called antibody 1; clone 1) VH: QVHLQQSATELARPGASVKMSCKASGYTFTSYTMHWVKQRPGQGLEWIGYIDPGSGYSEFNHKFKDKSTLTADKSSSTAYMQLISLTSEDSAVYYCARRQDNSGYDSFDYWGQGTTLTVSS VL: DIQMTQSPASLSVSVGETVTITCRTSENIYSNLAWYQQKQGKSPQLLVYAATNLADGVSSRFSGSGSGIQYSLKINSLQSEDFGSYYCQHFWGIPWTFGGGTKLEIK | % | 91.1 |

Take each entry in turn and give its % Reduction (of CD86 binding).
1. exemplary anti-CD28 antibody AB5 (antibody, V domains shown, Mouse hybridoma monoclonal antibody; Conjugated to PE in the staining assays; also called antibody 5; clone 5) VH: EVQLQQSGPELEKPGASVKMSCKASGYSFTDYNMNWVKQSNGKSLEWIGIIDPYYGATTYNQRFKGKATLTVDKSSSTAYMQLKSLTSEDSAVYYCARFGFYGAMDYWGQGISVTVSS VL: DVVVTQTPLSLPVSFGDQVSISCRSSQSLANSFGNTYLSWYLHKPGQSPQLLIYGISNRFSGVPDRFSGSGSGTDFTLKISTIKPEDLGVYYCLQGTHQPFTFGSGTTLELK
2. exemplary anti-CD28 antibody AB8 (antibody, V domains shown, Mouse hybridoma monoclonal antibody; Conjugated to PE in the staining assays; also called antibody 8; clone 8) VH: EVKLVESGGGLVQPGGSLKLSCAASGFTFSSYTMSWVRQTPEKRLEWVAYISNGGGTTYYPDTVKGRFTISRDNAKNTLYLQMSSLKSEDTAVYYCARHRPYDYDVLDYWGQGTTLTVSS VL: DIVMTQSQKFMSTSVGDRVSITCKASQIVGTDVAWYQQKPGQSPKILIFSASNRYTGVPDRFTGSGSGTDFTLTISNMQSEDLADYFCHQYSRYPYTFGGGTKLEIK

Result string:
91.9
88.8
